Tested on: Pseudomonas aeruginosa
Assay: Antibacterial activity against carbapenem resistant Pseudomonas aeruginosa clinical isolate 19-3 assessed as inhibition of bacterial growth incubated for 18 to 24 hrs by broth microdilution method
Type: functional
Conditions: time 18-24 hrs
endpoint-label: MIC (µg/mL)
Numbers only, in µg/mL.

| chemical-string | assayed-system | value-observed |
| --- | --- | --- |
| CCCCCCCCCC(=O)N[C@H](CCN)C(=O)N[C@H]1CCNC(=O)[C@H]([C@@H](C)O)NC(=O)[C@H](CCN)NC(=O)[C@H](CCN)NC(=O)[C@@H](CC(C)C)NC(=O)[C@@H](CC(C)C)NC(=O)[C@H](CCN)NC1=O | Pseudomonas aeruginosa | 64 |

Hi there! I need MIC for each item below, if you can.
1. CCCCCCC[C@@H](O)CC(=O)N[C@H](CO)C(=O)N[C@H](CCN)C(=O)N[C@H]1CCNC(=O)[C@H](CC(C)C)NC(=O)[C@H](CCN)NC(=O)[C@H](CCN)NC(=O)[C@H](Cc2ccccc2)NC(=O)[C@@H](CC(C)C)NC(=O)[C@H](CCN)NC1=O
2. CCCCCCCCCC(=O)N[C@H](CCN)C(=O)N[C@H]1CCNC(=O)[C@H](CC(C)C)NC(=O)[C@H](CCN)NC(=O)[C@H](CCN)NC(=O)[C@H](CC(C)C)NC(=O)[C@@H](CC(C)C)NC(=O)[C@H](CCN)NC1=O

[2, 8]

* * *

Assay: Half life in overnight fasted Sprague-Dawley rat at 4 mg/kg, ip measured for 24 hrs by LC-MS/MS analysis
Type: ADME, organism-based
Conditions: in vivo
endpoint-label: half-life (h)
One number for each entry, in h.

Quick check: half-life of `CCCCCCC[C@@H](O)CC(=O)N[C@H](CCN)C(=O)N[C@H]1CCNC(=O)[C@H]([C@@H](C)O)NC(=O)[C@H](CCN)NC(=O)[C@H](CCN)NC(=O)[C@H]([C@@H](C)O)NC(=O)[C@@H](Cc2ccccc2)NC(=O)[C@H](CCN)NC1=O` ?
3.7

* * *

Assay: Cytotoxicity against human HK-2 cells assessed as inhibition of cell growth incubated for 72 hrs by CCK-8 assay
Assay type: toxicity, cell-based
endpoint-label: IC50 at 72 h (µg/mL)
Numbers only, in µg/mL.

| chemical-string | IC50 at 72 h / µg/mL |
| --- | --- |
| CCCCCCCCCC(=O)N[C@H](CCN)C(=O)N[C@H]1CCNC(=O)[C@H]([C@@H](C)O)NC(=O)[C@H](CCN)NC(=O)[C@H](CCN)NC(=O)[C@H](CC(C)C)NC(=O)[C@@H](Cc2ccc(Cl)c(Cl)c2)NC(=O)[C@H](CCN)NC1=O | 28.5 |

Hi there! I need IC50 at 72 h for each item below, if you can.
1. CC(C)C[C@@H]1NC(=O)[C@@H](CC(C)C)NC(=O)[C@H](CCN)NC(=O)[C@@H](NC(=O)[C@@H](CCN)NC(=O)CCCCCC(C)(C)C)CCNC(=O)[C@H]([C@@H](C)O)NC(=O)[C@H](CCN)NC(=O)[C@H](CCN)NC1=O
2. CCCCCCC[C@@H](O)CC(=O)N[C@H](CCN)C(=O)N[C@H]1CCNC(=O)[C@H]([C@@H](C)O)NC(=O)[C@H](CCN)NC(=O)[C@H](CCN)NC(=O)[C@H]([C@@H](C)O)NC(=O)[C@@H](CC(C)C)NC(=O)[C@H](CCN)NC1=O
3. CCCCCCC[C@@H](O)CC(=O)N[C@H](CCN)C(=O)N[C@H]1CCNC(=O)[C@H](CC(C)C)NC(=O)[C@H](CCN)NC(=O)[C@H](CCN)NC(=O)[C@H](CC(C)C)NC(=O)[C@@H](CC(C)C)NC(=O)[C@H](CCN)NC1=O

1. 40.4
2. 411
3. 60.7
